Molecular target: DLG1_2, Q12959
Sequence (Q12959 314-412): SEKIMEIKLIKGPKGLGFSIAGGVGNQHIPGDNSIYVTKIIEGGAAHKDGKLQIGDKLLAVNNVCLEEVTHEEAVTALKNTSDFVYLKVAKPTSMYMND
Test: holdup assay
Design: key: below the threshold = too weak to quantify, mostly under pKd 3.1 to 4
Conditions: plain residues with an end cap or a label only (N-terminal biotin on a linker: ado-ado)
Observable: pKd

EDLEDEWEVI [TECPR2, O15040]: below the threshold
DRIQSCLSDA [SBF1, O95248]: below the threshold
SRSVVESDEL [MYPN, Q86TC9]: below the threshold
EDGESWEYQI [TRPV6, Q9H1D0]: below the threshold
